What follows is a record of IC50 for HCoV-229E 3CL^pro (Human coronavirus 229E, UniProt P0C6X1).
Write the number in nM without appending the unit.

Need IC50, item CC1(C)C[C@H](CN(NC(=O)[C@@H]2[C@@H]3[C@H](CN2C(=O)[C@@H](NC(=O)[C@@H]2CC2(F)F)C(C)(C)C)C3(C)C)C(=O)[C@H](F)Cl)C(=O)N1
2250

What do we get for C[C@@H]1C[C@H](CN(NC(=O)[C@@H]2[C@H]3CCC[C@H]3CN2C(=O)[C@@H](NC(=O)[C@@H]2CC2(F)F)C(C)(C)C)C(=O)[C@@H](F)Cl)C(=O)N1 ?
233

Next entry: CCC(CC)[C@H](NC(=O)[C@H](F)Cl)C(=O)N1C[C@@H]2CCC[C@@H]2[C@H]1C(=O)NN(C[C@@H]1CC(C)(C)NC1=O)C(=O)[C@H](F)Cl
241

Similarly, C[C@H]1C[C@@H](CN(NC(=O)[C@@H]2[C@@H]3[C@H](CN2C(=O)[C@@H](NC(=O)[C@@H]2CC2(F)F)C(C)(C)C)C3(C)C)C(=O)[C@H](F)Cl)C(=O)N1 ?
26
